# target_or_test_system: Src (Homo sapiens, UniProt P12931)
# Sequence (P12931 whole entry, species assumed): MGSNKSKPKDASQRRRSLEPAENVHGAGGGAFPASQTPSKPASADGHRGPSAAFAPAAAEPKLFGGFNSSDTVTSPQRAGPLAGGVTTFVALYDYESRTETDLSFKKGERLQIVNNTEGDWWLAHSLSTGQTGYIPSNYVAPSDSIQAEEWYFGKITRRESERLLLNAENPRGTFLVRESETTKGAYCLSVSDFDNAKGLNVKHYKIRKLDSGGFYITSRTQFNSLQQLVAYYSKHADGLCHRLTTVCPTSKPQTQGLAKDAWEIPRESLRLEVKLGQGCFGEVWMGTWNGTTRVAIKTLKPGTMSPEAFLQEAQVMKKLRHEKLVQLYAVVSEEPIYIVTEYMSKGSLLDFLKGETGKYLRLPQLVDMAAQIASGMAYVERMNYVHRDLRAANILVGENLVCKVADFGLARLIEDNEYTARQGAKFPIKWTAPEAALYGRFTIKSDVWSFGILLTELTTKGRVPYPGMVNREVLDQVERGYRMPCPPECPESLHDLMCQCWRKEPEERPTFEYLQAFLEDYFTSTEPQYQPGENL
# measurement_notes: Kinase profiling Src
# Assay type: biochemical
# test_conditions: 100 micromolar inhibitor concentration; 100 is no change
Catalogue of residual kinase activity, Src values

record_smiles: O=C(Nc1nc2ccc(O)cc2s1)c1ccccn1
residual kinase activity, Src: 105

record_smiles: COc1ccc2nc(NC(=O)c3ccccc3)sc2c1
residual kinase activity, Src: 172

record_smiles: COC(=O)c1cccc(C(=O)Nc2nc3cc(OC)ccc3s2)c1
residual kinase activity, Src: 169

record_smiles: COc1ccc2sc(NC(=O)c3cccc(C(N)=O)c3)nc2c1
residual kinase activity, Src: 79

record_smiles: O=C(Nc1nc2cc(O)ccc2s1)c1ccccc1
residual kinase activity, Src: 30

record_smiles: O=C(Nc1nc2cc(O)ccc2s1)c1ccccn1
residual kinase activity, Src: 70

record_smiles: N#Cc1ccc2nc(NC(=O)c3ccccc3)sc2c1
residual kinase activity, Src: 85

record_smiles: O=C(Nc1nc2ccc(O)cc2s1)c1ccncc1
residual kinase activity, Src: 62

record_smiles: O=C(Nc1nc2ccc(O)cc2s1)c1ccccc1
residual kinase activity, Src: 33

====

# Test system: VEG-FR
# measurement_notes: Kinase profiling VEG-FR
# Format: biochemical
# test_conditions: 100 micromolar inhibitor concentration; 100 is no change

molecule: O=C(Nc1nc2cc(O)ccc2s1)c1ccncc1 [Compound 03-11]
residual kinase activity, VEG-FR: 58
//
molecule: O=C(Nc1nc2cc(O)ccc2s1)c1cccnc1 [Compound 03-33]
residual kinase activity, VEG-FR: 50
//
molecule: CC(=O)Nc1nc2ccc(F)cc2s1 [Compound 03-94]
residual kinase activity, VEG-FR: 18
//
molecule: COc1ccc2sc(NC(=O)c3ccccc3)nc2c1 [Compound 03-95]
residual kinase activity, VEG-FR: 65
//
molecule: O=C(Nc1nc2cc(O)ccc2s1)c1ccccc1 [Compound 03-102]
residual kinase activity, VEG-FR: 11
//
molecule: CC(=O)Nc1nc2ccccc2s1 [Compound 03-32]
residual kinase activity, VEG-FR: 66
//
molecule: CC(=O)Nc1nc2cc(C(F)(F)F)ccc2s1 [Compound 03-73]
residual kinase activity, VEG-FR: 33
//
molecule: COc1ccc2nc(NC(=O)c3ccccc3)sc2c1 [Compound 03-98]
residual kinase activity, VEG-FR: 37

====

# target_or_test_system: MARK4 (Homo sapiens, UniProt Q96L34)
# Sequence (Q96L34 whole entry, species assumed): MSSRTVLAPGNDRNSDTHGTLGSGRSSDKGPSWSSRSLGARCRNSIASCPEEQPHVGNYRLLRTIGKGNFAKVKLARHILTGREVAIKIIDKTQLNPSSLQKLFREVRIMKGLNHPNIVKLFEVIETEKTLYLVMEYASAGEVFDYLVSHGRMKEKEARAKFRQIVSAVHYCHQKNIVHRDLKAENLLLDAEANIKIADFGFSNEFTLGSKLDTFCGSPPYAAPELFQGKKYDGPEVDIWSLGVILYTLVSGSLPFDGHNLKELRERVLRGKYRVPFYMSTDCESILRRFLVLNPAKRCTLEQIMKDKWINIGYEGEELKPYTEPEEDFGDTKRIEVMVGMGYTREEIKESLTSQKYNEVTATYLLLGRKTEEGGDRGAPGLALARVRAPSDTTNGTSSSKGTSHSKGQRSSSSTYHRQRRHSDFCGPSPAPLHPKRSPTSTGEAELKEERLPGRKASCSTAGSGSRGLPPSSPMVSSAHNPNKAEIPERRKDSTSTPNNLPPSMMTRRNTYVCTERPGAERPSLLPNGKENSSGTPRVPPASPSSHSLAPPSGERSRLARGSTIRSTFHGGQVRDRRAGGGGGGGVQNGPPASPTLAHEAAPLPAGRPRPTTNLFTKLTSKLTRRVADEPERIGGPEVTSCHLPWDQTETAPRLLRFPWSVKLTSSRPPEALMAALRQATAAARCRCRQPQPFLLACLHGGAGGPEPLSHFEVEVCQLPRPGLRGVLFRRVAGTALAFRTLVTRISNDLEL
# measurement_notes: Kinase profiling MARK4
# Type: biochemical
# test_conditions: 100 micromolar inhibitor concentration; 100 is no change
# residual kinase activity, MARK4 listing for each entry below

compound: O=C(Nc1nc2ccc(O)cc2s1)c1ccccc1 [Compound 03-60]
residual kinase activity, MARK4: 67

compound: O=C(Nc1nc2cc(O)ccc2s1)c1cccnc1 [Compound 03-33]
residual kinase activity, MARK4: 95

compound: O=C(Nc1nc2ccc(O)cc2s1)c1cccnc1 [Compound 08-44]
residual kinase activity, MARK4: 77

compound: O=C(Nc1nc2ccc(O)cc2s1)c1ccncc1 [Compound 08-42]
residual kinase activity, MARK4: 82

compound: CC(=O)Nc1nc2ccccc2s1 [Compound 03-32]
residual kinase activity, MARK4: 91

compound: O=C(Nc1nc2ccc(O)cc2s1)c1ccccn1 [Compound 03-12]
residual kinase activity, MARK4: 90

compound: O=C(Nc1nc2cc(O)ccc2s1)c1ccncc1 [Compound 03-11]
residual kinase activity, MARK4: 102

compound: CC(=O)Nc1nc2cc(C)ccc2s1 [Compound 03-76]
residual kinase activity, MARK4: 80

compound: O=C(Nc1nc2cc(O)ccc2s1)c1ccccn1 [Compound 03-13]
residual kinase activity, MARK4: 71

Hello, the source for this data is patent US10231954B2, in case you need it.
